Tested on: M. tuberculosis H37Rv
Assay: microbe, parasite or virus in culture
Assay type: cell-based, Mycobacterium tuberculosis
quantity.kind: antitubercular whole cell activity in words

molecule: O=C(Nc1ccccc1)c1cc(-c2csc(Nc3ccc(CO)cc3)n2)on1 [Compound 42n]
result: no whole cell activity
//
molecule: O=C(Nc1ccccn1)c1cc(-c2csc(Nc3ccc(CO)cc3)n2)on1 [Compound 43n]
result: no whole cell activity

Data credit: paper PMC10583863
